- SYSTEM NAME: Uracil-DNA glycosylase (Homo sapiens)
- EXPERIMENTAL CONDITIONS: Compound Concentration 1.0 uM, Hit No
- Description: Inhibition of UNG by quantifying inhibition of UNG-mediated cleavage and dissociation of quenched duplex DNA oligonucleotides, measured as fluorescence at 594 nm. To generate a functional strand incision and increase turn-over this assay is coupled to APE1.
REPORTED ENDPOINT: inhibition (%)
Give bare numbers, in %.

[
  {
    "SMILES": "CCCOc1ccc([C@@H]2[C@@H](C(=O)O)[C@H](c3ccc4c(c3)OCO4)CN2CC(=O)Nc2c(CC)cccc2CC)cc1",
    "UNIT LABEL": "%",
    "inhibition": 4.27
  },
  {
    "SMILES": "C[C@@H](Oc1cc(-n2cnc3ccc(CN4CCN(C)CC4)cc32)sc1C(N)=O)c1ccccc1C(F)(F)F",
    "UNIT LABEL": "%",
    "inhibition": 5.21
  },
  {
    "SMILES": "COc1cc2ncn(-c3cc(OCc4ccccc4C(F)(F)F)c(C(N)=O)s3)c2cc1OC",
    "UNIT LABEL": "%",
    "inhibition": 3.27
  },
  {
    "SMILES": "CNc1nc(Nc2cnn([C@H]3CCN(C4COC4)C[C@@H]3F)c2Cl)ncc1C(F)(F)F",
    "UNIT LABEL": "%",
    "inhibition": 2.4
  }
]

The reported inhibition of the compound `CC[C@@H]1[C@H](F)C(=O)N[C@@H]1COc1nccc2cc(C(N)=O)c(OC)cc12` was -6.54

* * *

Give measured inhibition for each item. Keep answers brief.
- SYSTEM NAME: UniProtKB P13051
- Sequence (P13051 whole entry): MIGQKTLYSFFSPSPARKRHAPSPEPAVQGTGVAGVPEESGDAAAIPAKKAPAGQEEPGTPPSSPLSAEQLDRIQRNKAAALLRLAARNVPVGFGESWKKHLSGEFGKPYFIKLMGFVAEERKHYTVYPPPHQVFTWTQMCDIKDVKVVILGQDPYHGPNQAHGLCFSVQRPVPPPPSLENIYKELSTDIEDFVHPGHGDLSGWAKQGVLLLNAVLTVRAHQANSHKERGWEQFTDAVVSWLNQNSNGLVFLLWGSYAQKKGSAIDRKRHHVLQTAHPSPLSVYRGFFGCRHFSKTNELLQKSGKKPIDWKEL
- EXPERIMENTAL CONDITIONS: Compound Concentration 10.0 uM, Hit No
Answers are plain numbers, in %.

[
  {
    "SMILES": "CCOC(=O)N1CCC(c2cc(O)n3nc(C)c(-c4ccc(F)cc4)c3n2)CC1",
    "inhibition / %": -0.428
  },
  {
    "SMILES": "COc1ccccc1/C=N/NC(=O)COc1ccc(Cl)cc1C",
    "inhibition / %": -5.19
  },
  {
    "SMILES": "O=C1O[C@]2(CC[C@H](C(=O)Nc3ccn(-c4ccccc4F)n3)CC2)c2cnccc21",
    "inhibition / %": -8.76
  }
]

The reported inhibition of the compound `CSCC[C@H](NC(=O)[C@H](Cc1ccccc1)NC(=O)[C@H](Cc1c[nH]cn1)NC(=O)CNC(=O)[C@@H](NC(=O)[C@H](C)NC(=O)[C@H](Cc1c[nH]c2ccccc12)NC(=O)[C@H](CC(C)C)NC(=O)[C@H](CC(N)=O)NC(=O)CN)[C@@H](C)O)C(N)=O` was -8.29

* * *

- SYSTEM NAME: Uracil-DNA glycosylase (Homo sapiens);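 note: UNG excision on a quenched double-stranded DNA oligo probe, with APE1 added for strand incision and turnover, read as fluorescence at 594 nm as strands separate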
- EXPERIMENTAL CONDITIONS: Compound Concentration 10.0 uM, Hit No
Give measured inhibition for each item. Keep answers brief.
Numbers only, in %.

For orientation, consider the following solved cases.
[
  {
    "COMPOUND": "O=C(O)CC/C=C\\C[C@@H]1CO[C@H](c2ccccc2Cl)O[C@@H]1c1ccccc1O",
    "UNIT LABEL": "%",
    "inhibition": -7.83
  },
  {
    "COMPOUND": "CC[C@H](CO)Nc1nc(NCc2ccccc2)c2ncn(C(C)C)c2n1",
    "UNIT LABEL": "%",
    "inhibition": 0.726
  },
  {
    "COMPOUND": "CCCCCN1C(=O)C2(COc3cc4c(cc32)OCO4)c2ccccc21 (stereo not given)",
    "UNIT LABEL": "%",
    "inhibition": -5.87
  },
  {
    "COMPOUND": "CCCN[C@H]1CCc2nc(N)sc2C1",
    "UNIT LABEL": "%",
    "inhibition": -5.95
  }
]

For each entry beneath this line, provide reported inhibition.
1. O=C(COc1cccc2ccccc12)Nc1cc(Cl)ccc1C(=O)O
2. CO[C@H]1CC=C2CCN3CCC4=C(CC(=O)OC4)[C@]23C1
3. C=C1/C(=C\C=C2/CCC[C@]3(C)[C@@H]([C@H](C)/C=C/[C@H](C)C(C)C)CC[C@@H]23)C[C@@H](O)C[C@@H]1O
4. Cn1c(C2(NC(=O)c3ccc4c(C5CCCC5)c(-c5ncc(Br)cn5)n(C)c4c3)CCC2)nc2ccc(/C=C/C(=O)O)cc21

Reply:
1: 2.63; 2: -6.82; 3: 1.6; 4: 13.1

For each entry beneath this line, provide reported inhibition.
1. CNC1(C)C2CCC(C2)C1(C)C (stereo not given)
2. N[C@](CC1c2ccccc2Oc2ccccc21)(C(=O)O)[C@H]1C[C@@H]1C(=O)O

Reply:
[-5.36, -3.16]

* * *

- SYSTEM NAME: Endonuclease 8-like 2 (Homo sapiens) (UniProt Q969S2);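 note: fluorescence at 594 nm reports NEIL2 cutting and release of a quenched double-stranded DNA oligo substrate, reduced signal read as inhibition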
- Sequence (Q969S2 whole entry): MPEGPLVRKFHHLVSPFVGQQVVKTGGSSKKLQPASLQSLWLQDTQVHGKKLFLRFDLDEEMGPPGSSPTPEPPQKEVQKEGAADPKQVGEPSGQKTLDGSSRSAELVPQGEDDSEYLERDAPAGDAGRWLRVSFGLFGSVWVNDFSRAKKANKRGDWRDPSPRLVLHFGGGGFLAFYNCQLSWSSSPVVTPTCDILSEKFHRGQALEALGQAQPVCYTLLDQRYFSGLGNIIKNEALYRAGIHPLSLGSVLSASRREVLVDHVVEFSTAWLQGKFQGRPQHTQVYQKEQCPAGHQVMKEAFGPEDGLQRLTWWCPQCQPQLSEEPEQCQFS
- EXPERIMENTAL CONDITIONS: Compound Concentration 10.0 uM, Hit No
- Description: Inhibition of NEIL2 by quantifying inhibition of NEIL2-mediated cleavage and dissociation of quenched duplex DNA oligonucleotides, measured as fluorescence at 594 nm.
REPORTED ENDPOINT: inhibition (%)
Answers are plain numbers, in %.

For each entry beneath this line, provide reported inhibition.
1. O=C(O)C[C@H]1CCc2c1[nH]c1ccc(OCc3ccc(C4CCCC4)c(C(F)(F)F)c3)cc21
2. O=c1ccn([C@@H]2O[C@H](COP(=O)(O)OP(=O)(O)O)[C@@H](O)[C@H]2O)c(=O)[nH]1
3. Cc1cc2c(-c3ccco3)cnc(N[C@H]3CCN(C)C[C@@H]3C(=O)NC3CCCCC3)c2[nH]c1=O
4. COC[C@H](O)Cn1c(=O)cnn(-c2ccc(Cl)c(C(=O)NCC3(O)CCCCCC3)c2)c1=O
5. CNC1(C)C2CCC(C2)C1(C)C (centres undefined)
6. CCNC(=O)c1cc2c(N3CCOC[C@@H]3C)ccnc2n1C
7. CC(C)c1ccc(CC(=O)N2CCC[C@@H](c3cccc(OC(C)(C)C(=O)O)c3)C2)cc1
8. Cc1cnc(-c2cc(N3CCN(C(=O)CCS(C)(=O)=O)CC3)ncc2Cl)c(C)c1

Reply:
1. 0.515
2. 2.51
3. -2.27
4. -2.64
5. -4.94
6. -9.42
7. 4.61
8. -4.23

The reported inhibition of the compound `O=C(O)c1ccc(S(=O)(=O)N(Cc2ccc(OC(F)(F)F)cc2)c2ncc(C(F)(F)F)cc2Cl)cc1` was 14.4

* * *

- SYSTEM NAME: Single-strand selective monofunctional uracil DNA glycosylase (Homo sapiens) (UniProt Q53HV7);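 note: enzymatic SMUG1 assay coupled with APE1, reading fluorescence at 594 nm released when a quenched double-stranded DNA oligonucleotide substrate is cleaved and separated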
- Sequence (whole entry): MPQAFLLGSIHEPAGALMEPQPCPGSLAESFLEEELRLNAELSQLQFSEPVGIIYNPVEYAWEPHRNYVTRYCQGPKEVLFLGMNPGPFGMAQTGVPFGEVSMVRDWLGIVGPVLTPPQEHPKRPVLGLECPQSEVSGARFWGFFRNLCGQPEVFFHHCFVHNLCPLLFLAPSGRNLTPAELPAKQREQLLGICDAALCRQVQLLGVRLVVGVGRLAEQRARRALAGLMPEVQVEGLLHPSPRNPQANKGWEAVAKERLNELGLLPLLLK
- EXPERIMENTAL CONDITIONS: Compound Concentration 1.0 uM, Hit No
- Description: Inhibition of SMUG1 by quantifying inhibition of SMUG1-mediated cleavage and dissociation of quenched duplex DNA oligonucleotides, measured as fluorescence at 594 nm. To generate a functional strand incision and increase turn-over this assay is coupled to APE1.
Assign criterion met whenever inhibition does not fall below 9%; assign criterion not met whenever it does.

[
  {
    "SMILES": "CN1C(=O)c2sccc2N(C)c2nc(Nc3ccc(S(N)(=O)=O)cc3)ncc21",
    "QUALITATIVE LABEL": "criterion met"
  },
  {
    "SMILES": "CC(C)(O)c1ccc(N2Cc3c(ccnc3-c3ccc(F)cc3OCC(F)(F)F)C2=O)cc1",
    "QUALITATIVE LABEL": "criterion not met"
  },
  {
    "SMILES": "Cc1nc(Cc2cccc(C(F)(F)F)c2)sc1-c1ccc(C(N)=O)nc1",
    "QUALITATIVE LABEL": "criterion not met"
  },
  {
    "SMILES": "Cc1cc(C)c(-n2ccn3nc(-c4cccnc4)cc23)cc1NC(=O)c1cc(C#N)cc(S(F)(F)(F)(F)F)c1",
    "QUALITATIVE LABEL": "criterion not met"
  }
]

From here, focus on the item given below.
Query: Hi, just wondering whether `Cc1n[nH]c2ncc(C(=O)N3CCC[C@H]3c3ccc(Cl)cc3)cc12` shows inhibition of 9% or higher.
Reply: criterion not met

* * *

- SYSTEM NAME: UniProt:Q9UIF7
- Sequence (Q9UIF7 whole entry): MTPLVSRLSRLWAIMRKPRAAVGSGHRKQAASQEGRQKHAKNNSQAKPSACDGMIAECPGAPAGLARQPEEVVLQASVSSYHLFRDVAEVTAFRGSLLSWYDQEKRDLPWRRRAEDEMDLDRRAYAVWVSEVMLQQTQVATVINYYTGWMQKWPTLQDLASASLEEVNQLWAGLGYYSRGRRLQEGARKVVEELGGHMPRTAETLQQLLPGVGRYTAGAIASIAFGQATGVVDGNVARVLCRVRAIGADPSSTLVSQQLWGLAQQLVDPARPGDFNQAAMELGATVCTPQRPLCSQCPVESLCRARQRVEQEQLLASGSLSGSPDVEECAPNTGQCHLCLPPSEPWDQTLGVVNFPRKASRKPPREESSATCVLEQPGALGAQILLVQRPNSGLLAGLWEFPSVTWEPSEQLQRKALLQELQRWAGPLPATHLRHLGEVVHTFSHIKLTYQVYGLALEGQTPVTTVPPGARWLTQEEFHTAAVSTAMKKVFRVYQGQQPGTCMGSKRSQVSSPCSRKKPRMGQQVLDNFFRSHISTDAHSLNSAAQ
- EXPERIMENTAL CONDITIONS: Compound Concentration 10.0 uM, Hit No
- Description: Inhibition of MUTYH by quantifying inhibition of MUTYH-mediated cleavage and dissociation of quenched duplex DNA oligonucleotides, measured as fluorescence at 594 nm. To generate a functional strand incision and increase turn-over this assay is coupled to APE1.
REPORTED ENDPOINT: inhibition
Please state the value followed by its unit.

For orientation, consider the following solved cases.
[
  {
    "COMPOUND": "COc1ccc(COc2ccc(Cc3cnc(N)nc3N)cc2OC)cc1",
    "SYSTEM NAME": "UniProt:Q9UIF7",
    "inhibition": "-3.46%"
  },
  {
    "COMPOUND": "CCCCCNC(=N)N/N=C/c1c[nH]c2ccc(OC)cc12",
    "SYSTEM NAME": "UniProt:Q9UIF7",
    "inhibition": "114%"
  },
  {
    "COMPOUND": "Nc1ncnc2c1ncn2[C@@H]1O[C@H](CO)[C@@H](O)[C@H]1O",
    "SYSTEM NAME": "UniProt:Q9UIF7",
    "inhibition": "17.8%"
  },
  {
    "COMPOUND": "Clc1ccc(OC[C@H]2CCN2)cn1",
    "SYSTEM NAME": "UniProt:Q9UIF7",
    "inhibition": "-6.13%"
  },
  {
    "COMPOUND": "CCc1cc2c(c(CC)n1)CCC(=O)N2Cc1ccc(-c2ccccc2-c2nnn[nH]2)cc1",
    "SYSTEM NAME": "UniProt:Q9UIF7",
    "inhibition": "24.1%"
  },
  {
    "COMPOUND": "CCC[C@@H]1CNCc2c1[nH]c(=O)c(C#N)c2N1CCC2(CC1)CC2",
    "SYSTEM NAME": "UniProt:Q9UIF7",
    "inhibition": "7.93%"
  }
]

For each entry beneath this line, provide reported inhibition.
1. O=c1ccc2c(OCCCCOc3ccccc3)c3ccoc3cc2o1
2. COc1cccc([C@H](O)C2CCN(CCc3ccc(F)cc3)CC2)c1OC
3. CCCCCNC(=O)N1CCC(CN(Cc2ccc(Cl)cc2)Cc2ccc([N+](=O)[O-])s2)C1 (stereo unspecified)

Reply:
3.71%
-6.25%
-5.57%

For each entry beneath this line, provide reported inhibition.
1. O=C(O)c1ccccc1S(=O)(=O)NCCCCN1C(=O)c2cccc3cccc(c23)C1=O
2. Cc1nc(-c2ccc(C(F)(F)F)cc2)sc1C(=O)NCc1ccc(OC(C)(C)C(=O)O)cc1
3. CCCCCCCC/C=C\CCCCCCCC(=O)NCc1ccc(O)c(OC)c1
4. O=C1c2ccccc2C(Cc2ccncc2)(Cc2ccncc2)c2ccccc21

Reply:
1. 23.6%
2. 6.62%
3. 5.55%
4. 8.2%

For each entry beneath this line, provide reported inhibition.
1. N#Cc1ccc(O[C@@H]2c3ccccc3C[C@H]2N2CCC[C@@H](N)C2)c(Cl)c1
2. c1ccc(C2CN3CCC2CC3)cc1 (stereo unspecified)
3. N#CC1(c2ccccn2)CCN(Cc2cc(C(=O)N3CCCC3)c(=O)n3ccccc23)CC1

Reply:
["0.102%", "22.9%", "-9.61%"]
